The measurements presented in this section are drawn from ChEMBL document CHEMBL1132750.

Give measured IC50 for each item. Keep answers brief.
Organism: Homo sapiens
EXPERIMENT: Inhibition of TNF alpha synthesis in human monocytes
Type: functional
Answers are plain numbers, in nM.

Example entries and their recorded answers appear below.
[
  {
    "MOLECULE": "COc1ccc(C(=O)Nc2c(Cl)cncc2Cl)cc1OC1CCCC1",
    "MEASURE UNIT": "nM",
    "IC50": 1.3
  },
  {
    "MOLECULE": "COc1ccc2c(Cc3c(Cl)cncc3Cl)nncc2c1/C=C/CCCc1ccccc1",
    "MEASURE UNIT": "nM",
    "IC50": 52
  },
  {
    "MOLECULE": "COc1ccc2c(Cc3c(Cl)cncc3Cl)nncc2c1C#CCCCc1ccccc1",
    "MEASURE UNIT": "nM",
    "IC50": 30
  },
  {
    "MOLECULE": "COc1ccc2c(Nc3c(Cl)cncc3Cl)nncc2c1OC1CCCC1",
    "MEASURE UNIT": "nM",
    "IC50": 187
  },
  {
    "MOLECULE": "FC(F)Oc1ccc2c(Cc3c(Cl)cncc3Cl)nncc2c1OC1CCCC1",
    "MEASURE UNIT": "nM",
    "IC50": 167
  },
  {
    "MOLECULE": "COc1ccc(C2CNC(=O)C2)cc1OC1CCCC1 (stereo unspecified)",
    "MEASURE UNIT": "nM",
    "IC50": 225
  }
]

// batch mode: one IC50 value per listed entry
1. COc1ccc2c(Cc3c(Cl)cncc3Cl)nncc2c1CCCCCc1ccccc1
2. COc1ccc2c(Cc3c(Cl)cncc3Cl)nncc2c1OC1Cc2ccccc2C1
3. COc1ccc2c(Cc3c(Cl)cncc3Cl)n[n+]([O-])cc2c1OC1CCCC1
4. COc1ccc2c(Cc3c(Cl)cncc3Cl)nncc2c1OCCCCCc1ccccc1
5. COc1ccc2c(Cc3c(Cl)cncc3Cl)nncc2c1OC1CCCC1

1. 103
2. 252
3. 139
4. 83
5. 254
